Value source: patent US7598067B2

Molecular target: TbPDE2A (Trypanosoma brucei, UniProt Q9GTN9)
Sequence (Q9GTN9 entry or part of it): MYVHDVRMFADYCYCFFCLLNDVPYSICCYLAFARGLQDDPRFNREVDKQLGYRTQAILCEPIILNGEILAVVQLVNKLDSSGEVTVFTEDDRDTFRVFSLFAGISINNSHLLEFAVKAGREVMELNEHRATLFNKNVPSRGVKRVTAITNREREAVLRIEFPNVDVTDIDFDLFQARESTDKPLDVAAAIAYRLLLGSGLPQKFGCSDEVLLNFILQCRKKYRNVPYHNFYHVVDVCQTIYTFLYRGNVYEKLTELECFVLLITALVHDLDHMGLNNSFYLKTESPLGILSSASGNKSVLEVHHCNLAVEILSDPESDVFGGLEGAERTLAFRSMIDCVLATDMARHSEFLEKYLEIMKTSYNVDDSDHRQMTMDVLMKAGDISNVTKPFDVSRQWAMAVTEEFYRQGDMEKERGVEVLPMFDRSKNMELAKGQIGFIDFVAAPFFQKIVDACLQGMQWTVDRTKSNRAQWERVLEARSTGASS
Assay: Phosphodiesterase assay, recombinant TbPDE2A in yeast lysates
Format: biochemical
Details: 100 μM inhibitor; 1 μM cAMP; FIG. 26
Measured attribute: effect on TbPDE2A activity in initial screening

# Compound, Measured
data = [
    ("CN(C(=O)CCCOc1ccc2[nH]c(=O)ccc2c1)C1CCCCC1 [Cilostamide, cilostamide]", "only very little effect"),
    ("CCCOc1ccccc1-c1nc2nn[nH]c2c(=O)[nH]1 [Zaprinast, zaprinast]", "only very little effect"),
    ("Cc1[nH]c(=O)c(C#N)cc1-c1ccncc1 [milrinone]", "only very little effect"),
    ("CCOC(=O)C1=C[C@]2(CC)CCCN3CCc4c(n1c1ccccc41)[C@@H]32 [Vinpocetine, vinpocetine]", "only very little effect"),
]

// next entry
Qu. Please give measured effect on TbPDE2A activity in initial screening of the following entry: COCc1nc2c([nH]1)c(=O)n(C)c(=O)n2CC(C)C [8-methoxymethyl-IBMX]
Ans. only very little effect

---

For each entry below, report its IC50 value.
Biological target: UniProt:Q9GQU6
Sequence (Q9GQU6 entry or part of it): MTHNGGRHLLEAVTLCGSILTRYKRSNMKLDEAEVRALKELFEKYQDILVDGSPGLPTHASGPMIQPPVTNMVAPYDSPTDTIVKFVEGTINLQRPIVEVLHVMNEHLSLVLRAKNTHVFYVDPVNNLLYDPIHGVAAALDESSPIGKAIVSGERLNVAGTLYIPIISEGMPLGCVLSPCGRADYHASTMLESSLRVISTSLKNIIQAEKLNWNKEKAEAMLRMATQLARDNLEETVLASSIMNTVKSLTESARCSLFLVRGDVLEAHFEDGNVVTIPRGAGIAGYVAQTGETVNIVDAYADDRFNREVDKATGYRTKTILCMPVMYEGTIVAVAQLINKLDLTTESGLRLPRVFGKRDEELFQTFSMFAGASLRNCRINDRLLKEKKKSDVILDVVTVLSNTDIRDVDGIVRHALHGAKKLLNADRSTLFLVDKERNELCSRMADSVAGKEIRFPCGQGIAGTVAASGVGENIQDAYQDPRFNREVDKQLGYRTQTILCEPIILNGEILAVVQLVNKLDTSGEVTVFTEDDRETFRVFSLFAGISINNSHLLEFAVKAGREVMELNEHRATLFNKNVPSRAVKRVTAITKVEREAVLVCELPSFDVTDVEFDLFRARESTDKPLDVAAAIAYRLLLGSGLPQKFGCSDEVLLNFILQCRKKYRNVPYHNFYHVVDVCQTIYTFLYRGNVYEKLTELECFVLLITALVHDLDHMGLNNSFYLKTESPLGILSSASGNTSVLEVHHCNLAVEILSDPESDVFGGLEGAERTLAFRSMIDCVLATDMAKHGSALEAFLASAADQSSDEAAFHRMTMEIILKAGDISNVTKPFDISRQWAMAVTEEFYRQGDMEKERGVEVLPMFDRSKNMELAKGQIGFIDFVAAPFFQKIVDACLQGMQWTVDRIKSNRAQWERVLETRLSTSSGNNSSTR
Assay: Phosphodiesterase assay, recombinant TbPDE2B expressed in HEK 293 cells
Type: biochemical

Recorded IC50, per entry:
# Compound, Measured
data = [
    ("COc1ccc(Cc2nccc3cc(OC)c(OC)cc23)cc1OC", "304 µM"),
    ("CCCCCCC(C(C)O)n1cnc2c(N)ncnc21 (stereo not drawn) [EHNA, erythro-9-[3-(2-hydroxynonyl)]-adenine]", "> 180 µM"),
    ("CCCc1nn(C)c2c(=O)[nH]c(-c3cc(S(=O)(=O)N4CCN(C)CC4)ccc3OCC)nc12", "> 100 µM"),
    ("CCOC(=O)c1cnc2c(cnn2CC)c1NN=C(C)C [Etazolate, etazolate]", "127 µM"),
    ("CCCOc1ccccc1-c1nc2nn[nH]c2c(=O)[nH]1", "> 50 µM"),
    ("CC(C)Cn1c(=O)n(C)c(=O)c2[nH]cnc21", "> 1000 µM"),
]

Record IC50 per entry; entries follow.
1. CSc1ccc(C(=O)c2[nH]c(=O)[nH]c2C)cc1
2. COc1ccc(C2CNC(=O)C2)cc1OC1CCCC1 (stereo not shown)
3. CC(=O)CCCCn1c(=O)c2c(ncn2C)n(C)c1=O
4. OCCN(CCO)c1nc(N2CCCCC2)c2nc(N(CCO)CCO)nc(N3CCCCC3)c2n1

Ans.
1: > 100 µM; 2: > 300 µM; 3: > 800 µM; 4: 27 µM

---

Molecular target: TbPDE2A (Trypanosoma brucei, UniProt Q9GTN9)
Experiment: Phosphodiesterase assay, recombinant TbPDE2A in yeast lysates
Assay type: biochemical
Settings: full-size TbPDE2A, yeast lysates; 1 μM cAMP
Measured attribute: pIC50
Answers are plain numbers, as −log10 of the molar value.

Recorded pIC50, per entry:
# Molecule, pIC50
records = [
    ("CC(C)Cn1c(=O)n(C)c(=O)c2[nH]cnc21 [IBMX, 3-Isobutyl-1-methylxanthine]", 3.26),
    ("CCCOc1ccccc1-c1nc2nn[nH]c2c(=O)[nH]1 [Zaprinast, zaprinast]", 4.37),
    ("CCCc1nn(C)c2c(=O)[nH]c(-c3cc(S(=O)(=O)N4CCN(C)CC4)ccc3OCC)nc12 [Sildenafil, sildenafil]", 5.03),
    ("COc1cc2c(cc1OC)-c1c/c(=N\\c3c(C)cc(C)cc3C)n(C)c(=O)n1CC2 [Trequinsin]", 5.27),
]

Qu. Please give measured pIC50 of the following entry: CCOC(=O)c1cnc2c(cnn2CC)c1NN=C(C)C [Etazolate, etazolate]
Ans. 4.52
